- System: MET
- protocol details: MET biochemical kinase assay
- Design: species or system human; concentration or dose not given beside the values
One threshold, 30%, splits the recorded Met Kinase % Inhibition values: lower ones are Met, equal or higher ones are Not met.

Task: Strictly below 30% in Met Kinase % Inhibition? COc1cccc(O)c1C=C1C(=O)Nc2c(Br)cc(Br)cc21
Output: Not met

---

Here, each record is paired with measured Fik Kinase %Inhibition data.
- system name: FLK-1 receptor (Mus musculus)
- Construct: expressed in transfected cells; host or cells: NIH3T3 C7#3
- Sequence (P35918 20-1345): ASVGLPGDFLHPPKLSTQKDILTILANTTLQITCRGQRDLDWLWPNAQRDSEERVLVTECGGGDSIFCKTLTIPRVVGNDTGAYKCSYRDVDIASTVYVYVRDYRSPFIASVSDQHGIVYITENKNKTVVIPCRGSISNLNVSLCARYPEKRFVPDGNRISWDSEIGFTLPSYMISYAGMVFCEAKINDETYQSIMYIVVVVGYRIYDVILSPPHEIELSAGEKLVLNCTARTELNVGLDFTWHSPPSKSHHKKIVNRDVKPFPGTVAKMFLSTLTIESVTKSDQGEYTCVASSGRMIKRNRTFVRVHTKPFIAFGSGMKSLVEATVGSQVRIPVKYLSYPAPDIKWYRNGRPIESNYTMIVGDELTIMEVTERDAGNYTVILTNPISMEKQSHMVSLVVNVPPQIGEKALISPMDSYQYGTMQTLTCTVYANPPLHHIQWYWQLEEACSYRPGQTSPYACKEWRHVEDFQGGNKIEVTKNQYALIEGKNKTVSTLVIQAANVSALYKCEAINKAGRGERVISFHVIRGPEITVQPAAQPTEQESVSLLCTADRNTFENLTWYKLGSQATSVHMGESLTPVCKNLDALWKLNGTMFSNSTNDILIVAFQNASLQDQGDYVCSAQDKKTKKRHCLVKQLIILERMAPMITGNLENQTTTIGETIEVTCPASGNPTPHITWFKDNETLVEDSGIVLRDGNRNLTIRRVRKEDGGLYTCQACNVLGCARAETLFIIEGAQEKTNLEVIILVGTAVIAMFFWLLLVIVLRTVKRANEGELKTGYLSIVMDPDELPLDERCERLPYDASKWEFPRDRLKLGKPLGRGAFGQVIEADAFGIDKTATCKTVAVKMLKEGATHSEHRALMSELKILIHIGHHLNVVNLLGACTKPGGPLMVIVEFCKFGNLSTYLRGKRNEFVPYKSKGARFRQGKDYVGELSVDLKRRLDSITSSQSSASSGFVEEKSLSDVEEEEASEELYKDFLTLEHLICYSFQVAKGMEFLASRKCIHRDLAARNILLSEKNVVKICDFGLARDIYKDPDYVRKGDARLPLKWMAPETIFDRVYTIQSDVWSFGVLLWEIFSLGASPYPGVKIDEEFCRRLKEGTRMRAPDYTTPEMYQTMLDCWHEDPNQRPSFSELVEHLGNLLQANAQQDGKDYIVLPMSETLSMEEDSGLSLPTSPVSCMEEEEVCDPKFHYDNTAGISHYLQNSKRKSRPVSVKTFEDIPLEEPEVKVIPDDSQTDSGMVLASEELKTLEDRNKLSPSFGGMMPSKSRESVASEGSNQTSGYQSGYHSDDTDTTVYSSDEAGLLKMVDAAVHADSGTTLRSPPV
- protocol details: FLK-1 ELISA (kinase activity of the FLK-1 receptor in FLK-1/NIH3T3 cells, VEGF stimulated)
- Type: cell-based

[[record]]
compound_string = "CCc1cc(CC)c(C=C2C(=O)Nc3ccc(S(=O)(=O)NC)cc32)[nH]1"
val = "3.1%"

[[record]]
compound_string = "CNS(=O)(=O)c1ccc2c(c1)C(=Cc1ccc(OC)c3ccccc13)C(=O)N2"
val = "15.3%"

[[record]]
compound_string = "CNS(=O)(=O)c1ccc2c(c1)C(=Cc1c(O)cccc1OC)C(=O)N2"
val = "-6.0%"


Lab note: next compound to report on.
Task: Look up Fik Kinase %Inhibition for this compound: COC(=O)Cc1c(Cl)[nH]c(C=C2C(=O)Nc3ccc(I)cc32)c1C(=O)OC
Output: 0.4%
